Cited source for all entries: paper PMC10108740

# assay-notes: in vitro
# study-conditions: chlorocebus aethiops
experimental-endpoint: CC50 at 38 h (µM)
Record the value in µM, omitting the unit from your answer.

Lab note: measured CC50 at 38 h of CCCCCCCCCCCCCCCCCCOC[C@H](COP(=O)(O)OC[C@H]1O[C@@](C#N)(c2ccc3c(N)ncnn23)[C@H](O)[C@@H]1O)OCc1ccccc1 was 97.9

----------
# assay-notes: in vitro
# study-conditions: human
experimental-endpoint: CC50 at 24 h

Reference set, count: 2
molecule	CC50 at 24 h
CCCCCCCCCCCCCCCCOC[C@H](COP(=O)(O)OC[C@H]1O[C@@](C#N)(c2ccc3c(N)ncnn23)[C@H](O)[C@@H]1O)OCc1ccc(OC)c(F)c1 [Compound 11g]	> 20 µM
CCCCCCCCCCCCCCCCCCOC[C@H](COP(=O)(O)OC[C@H]1O[C@@](C#N)(c2ccc3c(N)ncnn23)[C@H](O)[C@@H]1O)OCc1ccccc1	> 20 µM

Here is another molecule to look at.
The reported CC50 at 24 h of the molecule CCCCCCCCCCCCCCCCCCOC[C@H](COP(=O)(O)OC[C@H]1O[C@@](C#N)(c2ccc3c(N)ncnn23)[C@H](O)[C@@H]1O)OCc1ccc(OC)c(F)c1 was > 20 µM

----------
# System: SARS-CoV-2 (WA-1)
# assay-notes: Antiviral immunofluorescence assay, SARS-CoV-2 WA1 in Vero-TMPRSS2 cells
# Assay type: cell-based
# study-conditions: Severe acute respiratory syndrome coronavirus 2; WA-1, Vero-TMPRSS2 cells, immunofluorescence, 38 hpi
experimental-endpoint: EC90

compound	EC90
CCCCCCCCCCCCCCCCCCOC[C@H](COP(=O)(O)OC[C@H]1O[C@@](C#N)(c2ccc3c(N)ncnn23)[C@H](O)[C@@H]1O)OCCC1CCCCC1	582 nM
CCCCCCCCCCCCCCCCCCOC[C@H](COP(=O)(O)OC[C@H]1O[C@@](C#N)(c2ccc3c(N)ncnn23)[C@H](O)[C@@H]1O)OCc1ccc(OC)c(F)c1	294 nM
CCCCCCCCCCCCCCOC[C@H](COP(=O)(O)OC[C@H]1O[C@@](C#N)(c2ccc3c(N)ncnn23)[C@H](O)[C@@H]1O)OCc1ccccc1 [Compound 12a]	1630 nM

EC90 recorded for this compound, CCCCCCCCCCCCCCCCOC[C@H](COP(=O)(O)OC[C@H]1O[C@@](C#N)(c2ccc3c(N)ncnn23)[C@H](O)[C@@H]1O)OCc1ccccc1 [Compound 11a] , is 798 nM

// recorded EC90 for CCCCCCCCCCCCCCCCCCOC[C@H](COP(=O)(O)OC[C@H]1O[C@@](C#N)(c2ccc3c(N)ncnn23)[C@H](O)[C@@H]1O)OCc1ccccc1 : 403 nM

----------
EC90 overview
# Test system: SARS-CoV-2 WA1 (USA-WA1/2020)
# assay-notes: Antiviral immunofluorescence assay, SARS-CoV-2 WA1 in Calu-3 cells
# Format: cell-based
# study-conditions: Severe acute respiratory syndrome coronavirus 2; WA1, Calu-3 cells, immunofluorescence, 44 hpi, mean ± SD
Provide only the numeric value, understood in nM.

Field: example entries. Status: answers known.
compound	tested-system	EC90 / nM
CCCCCCCCCCCCCCCCCCOC[C@H](COP(=O)(O)OC[C@H]1O[C@@](C#N)(c2ccc3c(N)ncnn23)[C@H](O)[C@@H]1O)OCc1cccc(C(F)(F)F)c1	SARS-CoV-2 WA1 (USA-WA1/2020)	316
CCCCCCCCCCCCCCCCCCOC[C@H](COP(=O)(O)OC[C@H]1O[C@@](C#N)(c2ccc3c(N)ncnn23)[C@H](O)[C@@H]1O)OCCCCCCCC	SARS-CoV-2 WA1 (USA-WA1/2020)	2500
CCCCCCCCCCCCCCCCCCOC[C@H](COP(=O)(O)OC[C@H]1O[C@@](C#N)(c2ccc3c(N)ncnn23)[C@H](O)[C@@H]1O)OCc1ccc(C#N)cc1	SARS-CoV-2 WA1 (USA-WA1/2020)	82

So for CCCCCCCCCCCCCCCCCCOC[C@H](COP(=O)(O)OC[C@H]1O[C@@](C#N)(c2ccc3c(N)ncnn23)[C@H](O)[C@@H]1O)OCc1ccccc1 , the logged EC90 turned out to be 323

response.value for CCCCCCCCCCCCCCCCCCOC[C@@H](COP(=O)(O)OC[C@H]1O[C@@](C#N)(c2ccc3c(N)ncnn23)[C@H](O)[C@@H]1O)OCc1ccccc1 (field: EC90) = 625

The compound CCCCCCCCCCCCCCCCCCOC[C@H](COP(=O)(O)OC[C@H]1O[C@@](C#N)(c2ccc3c(N)ncnn23)[C@H](O)[C@@H]1O)OCc1cccc(F)c1 showed EC90 equal to 506

// field: EC90; key: CCCCCCCCCCCCCCCCCCOCC(COP(=O)(O)OC[C@H]1O[C@@](C#N)(c2ccc3c(N)ncnn23)[C@H](O)[C@@H]1O)OCc1ccccc1 (some centres unmarked) ; value = 1070

Consider CCCCCCCCCCCCCCCCOC[C@H](COP(=O)(O)OC[C@H]1O[C@@](C#N)(c2ccc3c(N)ncnn23)[C@H](O)[C@@H]1O)OCc1ccccc1 [Compound 11a] . Its measured EC90 is 716

response.value for CCCCCCCCCCCCCCCCOC[C@H](COP(=O)(O)OC[C@H]1O[C@@](C#N)(c2ccc3c(N)ncnn23)[C@H](O)[C@@H]1O)OCc1ccc(OC)c(F)c1 [Compound 11g] (field: EC90) = 240

The recorded EC90 for CCCCCCCCCCCCCCOC[C@H](COP(=O)(O)OC[C@H]1O[C@@](C#N)(c2ccc3c(N)ncnn23)[C@H](O)[C@@H]1O)OCc1ccccc1 [Compound 12a] is 575

The measured EC90 associated with CCCCCCCCCCCCCCCCCCOC[C@H](COP(=O)(O)OC[C@H]1O[C@@](C#N)(c2ccc3c(N)ncnn23)[C@H](O)[C@@H]1O)OCCC1CCCCC1 reads 1830
